// provenance: patent US10030006B2

# Tested on: HCT-116
# method-summary: Anti-proliferation assay, HCT-116
# Format: cell-based
# condition-label: Table 9, non-aryl ureas
measurement-kind: pIC50
Here pIC50 is given on a logarithmic scale as minus log10 of the concentration in mol/L.

Some solved cases for reference:
molecule="Cc1c(OC2CCN(C)CC2)ccc2cc(NC(=O)N(Cc3ccccc3)Cc3ccccc3)c(=O)oc12 [drawing 161]" reported_value=5.23
molecule="Cc1c(OC2CCN(C)CC2)ccc2cc(NC(=O)NC3CCCC3)c(=O)oc12 [drawing 154]" reported_value=5.10
molecule="Cc1c(OC2CCN(C)CC2)ccc2cc(NC(=O)NC34CC5CC(CC(C5)C3)C4)c(=O)oc12 [drawing 156]" reported_value=7.09
molecule="Cc1c(OC2CCN(C)CC2)ccc2cc(NC(=O)NC(c3ccccc3)c3ccccc3)c(=O)oc12 [drawing 162]" reported_value=6.02
molecule="Cc1c(OC2CCN(C)CC2)ccc2cc(NC(=O)N(C)Cc3ccccc3)c(=O)oc12 [drawing 160]" reported_value=3.74
molecule="Cc1c(OC2CCN(C)CC2)ccc2cc(NC(=O)NC3CCCCC3)c(=O)oc12 [drawing 155]" reported_value=5.04
molecule="Cc1c(OC2CCN(C)CC2)ccc2cc(NC(=O)NC(C)(C)C)c(=O)oc12 [drawing 157]" reported_value=4.92

Now look at this one.
**Query** # input molecule: Cc1c(OC2CCN(C)CC2)ccc2cc(NC(=O)NCc3ccccc3)c(=O)oc12 [drawing 159] ; wanted: its pIC50
**Result** 6.18

----------
# Tested on: SKBr3 (estrogen receptor negative, Her2 over-expressing breast cancer cells)
# method-summary: Anti-proliferation assay (MTS/PMS, 72 h), SKBr3
# Type: cell-based
# condition-label: Homo sapiens, SK-BR-3; Table 6, substituted phenyl ureas; Breast Cancer; read-out: IC50 SKBr3
The label Condition met is reserved for IC50 strictly under 600 nM; Condition not met covers values equal to or above it.

chemical_string=Cc1c(OC2CCN(C)CC2)ccc2cc(NC(=O)Nc3cccc(Cl)c3)c(=O)oc12 experimental_target="SKBr3 (estrogen receptor negative, Her2 over-expressing breast cancer cells)" answer_label="Condition met"
chemical_string=Cc1ccc(NC(=O)Nc2cc3ccc(OC4CCN(C)CC4)c(C)c3oc2=O)c(C)c1 experimental_target="SKBr3 (estrogen receptor negative, Her2 over-expressing breast cancer cells)" answer_label="Condition not met"
chemical_string=Cc1c(OC2CCN(C)CC2)ccc2cc(NC(=O)Nc3ccc([N+](=O)[O-])cc3)c(=O)oc12 experimental_target="SKBr3 (estrogen receptor negative, Her2 over-expressing breast cancer cells)" answer_label="Condition met"
chemical_string=Cc1c(OC2CCN(C)CC2)ccc2cc(NC(=O)Nc3cc(Cl)cc(Cl)c3)c(=O)oc12 experimental_target="SKBr3 (estrogen receptor negative, Her2 over-expressing breast cancer cells)" answer_label="Condition met"
chemical_string=COc1cc(NC(=O)Nc2cc3ccc(OC4CCN(C)CC4)c(C)c3oc2=O)cc(OC)c1OC experimental_target="SKBr3 (estrogen receptor negative, Her2 over-expressing breast cancer cells)" answer_label="Condition not met"
chemical_string=Cc1c(OC2CCN(C)CC2)ccc2cc(NC(=O)Nc3ccc(C(C)C)cc3)c(=O)oc12 experimental_target="SKBr3 (estrogen receptor negative, Her2 over-expressing breast cancer cells)" answer_label="Condition not met"
chemical_string=Cc1c(OC2CCN(C)CC2)ccc2cc(NC(=O)Nc3ccc(Oc4ccccc4)cc3)c(=O)oc12 experimental_target="SKBr3 (estrogen receptor negative, Her2 over-expressing breast cancer cells)" answer_label="Condition met"
chemical_string=Cc1cccc(NC(=O)Nc2cc3ccc(OC4CCN(C)CC4)c(C)c3oc2=O)c1 experimental_target="SKBr3 (estrogen receptor negative, Her2 over-expressing breast cancer cells)" answer_label="Condition not met"

**Query** Please check: IC50 for `Cc1c(OC2CCN(C)CC2)ccc2cc(NC(=O)Nc3ccc(O)cc3)c(=O)oc12` , strictly under 600 nM or not?
**Result** Condition not met

**Query** Query `Cc1cc(C)cc(NC(=O)Nc2cc3ccc(OC4CCN(C)CC4)c(C)c3oc2=O)c1` next
**Result** Condition met

**Query** Query `Cc1c(OC2CCN(C)CC2)ccc2cc(NC(=O)Nc3ccc(N(C)C)cc3)c(=O)oc12` next
**Result** Condition not met

**Query** Query `Cc1ccc(NC(=O)Nc2cc3ccc(OC4CCN(C)CC4)c(C)c3oc2=O)cc1` next
**Result** Condition met

**Query** Query `COc1ccc(C(C)(C)C)cc1NC(=O)Nc1cc2ccc(OC3CCN(C)CC3)c(C)c2oc1=O` next
**Result** Condition not met

----------
# Test system: MCF-7 (estrogen receptor positive breast cancer cells)
# method-summary: Anti-proliferation assay (MTS/PMS, 72 h), MCF-7
# Type: cell-based
# condition-label: Homo sapiens, MCF7; Table 5, alkylether derivatives with cyclic N-substitutions; read-out: MCF-7
measurement-kind: IC50 (nM)
Please reply with the bare figure in nM and do not write the unit itself.

Some solved cases for reference:
compound="CC(C)=CCc1cc(C(=O)Nc2cc3ccc(OCCCNC45CC6CC(CC(C6)C4)C5)c(C)c3oc2=O)ccc1O [Compound 70j]" experimental_target="MCF-7 (estrogen receptor positive breast cancer cells)" measurement_kind=IC50 reported_value=320
compound="CC(C)=CCc1cc(C(=O)Nc2cc3ccc(OCCCNC4CCCCC4)c(C)c3oc2=O)ccc1O [Compound 70a]" experimental_target="MCF-7 (estrogen receptor positive breast cancer cells)" measurement_kind=IC50 reported_value=1070
compound="CC(C)=CCc1cc(C(=O)Nc2cc3ccc(OCCCNCc4ccccc4)c(C)c3oc2=O)ccc1O [Compound 70e]" experimental_target="MCF-7 (estrogen receptor positive breast cancer cells)" measurement_kind=IC50 reported_value=910

**Query** API: value(readout=IC50, system=MCF-7 (estrogen receptor positive breast cancer cells)) for record CC(C)=CCc1cc(C(=O)Nc2cc3ccc(OCCCNC(C)(C)c4ccccc4)c(C)c3oc2=O)ccc1O [Compound 70g]
**Result** 1070

**Query** Query CC(C)=CCc1cc(C(=O)Nc2cc3ccc(OCCCN(C)[C@H](C)c4ccccc4)c(C)c3oc2=O)ccc1O [Compound 70f] next
**Result** 1450

**Query** Query CC(C)=CCc1cc(C(=O)Nc2cc3ccc(OCCCN(C)Cc4ccccc4)c(C)c3oc2=O)ccc1O [Compound 70h] next
**Result** 11500

**Query** Query CC(C)=CCc1cc(C(=O)Nc2cc3ccc(OCCCNC4C[C@H]5CC[C@@H]4C5)c(C)c3oc2=O)ccc1O (stereo partly shown) [Compound 70i] next
**Result** 1030

----------
# Tested on: SKBr3 (estrogen receptor negative, Her2 over-expressing breast cancer cells)
# method-summary: Anti-proliferation assay (MTS/PMS, 72 h), SKBr3
# Type: cell-based
# condition-label: Homo sapiens, SK-BR-3; Table 7, prenylated phenyl ureas; Breast Cancer; read-out: IC50 SKBr3
Recorded IC50 for the following compounds
Please reply with the bare figure in nM and do not write the unit itself.

compound="CC(=O)Oc1ccc(NC(=O)Nc2cc3ccc(OC4CCN(C)CC4)c(C)c3oc2=O)cc1CC=C(C)C [OAc]" experimental_target="SKBr3 (estrogen receptor negative, Her2 over-expressing breast cancer cells)" reported_value=540
compound="COc1ccc(NC(=O)Nc2cc3ccc(OC4CCN(C)CC4)c(C)c3oc2=O)cc1CC=C(C)C [OMe]" experimental_target="SKBr3 (estrogen receptor negative, Her2 over-expressing breast cancer cells)" reported_value=510

Now look at this one.
**Query** # input compound: CC(C)=CCc1cc(NC(=O)Nc2cc3ccc(OC4CCN(C)CC4)c(C)c3oc2=O)ccc1O [OH] ; wanted: its IC50
**Result** 390

----------
Recorded IC50 for the following compounds
# Test system: MDA1986
# method-summary: Anti-proliferation assay, MDA1986
# Format: cell-based
# condition-label: MDA1986; Table 7, prenylated phenyl ureas; HSNCC
Please reply with the bare figure in nM and do not write the unit itself.

Some solved cases for reference:
chemical_string=CC(=O)Oc1ccc(NC(=O)Nc2cc3ccc(OC4CCN(C)CC4)c(C)c3oc2=O)cc1CC=C(C)C unit_abbreviation=nM reported_value=1320
chemical_string=COc1ccc(NC(=O)Nc2cc3ccc(OC4CCN(C)CC4)c(C)c3oc2=O)cc1CC=C(C)C unit_abbreviation=nM reported_value=850

**Query** # input compound: `CC(C)=CCc1cc(NC(=O)Nc2cc3ccc(OC4CCN(C)CC4)c(C)c3oc2=O)ccc1O` ; wanted: its IC50
**Result** 1360

----------
# Test system: MRC5
# method-summary: Anti-proliferation assay, MRC5 (normal)
# Format: cell-based
# condition-label: Table 9, non-aryl ureas
measurement-kind: IC50

Some solved cases for reference:
compound="Cc1c(OC2CCN(C)CC2)ccc2cc(NC(=O)NC34CC5CC(CC(C5)C3)C4)c(=O)oc12 [drawing 169]" experimental_target=MRC5 reported_value="3.8 µM"
compound="Cc1c(OC2CCN(C)CC2)ccc2cc(NC(=O)NC(C)(C)C)c(=O)oc12 [drawing 170]" experimental_target=MRC5 reported_value="21.1 µM"
compound="Cc1c(OC2CCN(C)CC2)ccc2cc(NC(=O)NC(c3ccccc3)c3ccccc3)c(=O)oc12 [drawing 175]" experimental_target=MRC5 reported_value="15.5 µM"
compound="Cc1c(OC2CCN(C)CC2)ccc2cc(NC(=O)NC3CCCC3)c(=O)oc12 [drawing 167]" experimental_target=MRC5 reported_value="> 25 µM"

**Query** # input compound: Cc1c(OC2CCN(C)CC2)ccc2cc(NC(=O)N(C)Cc3ccccc3)c(=O)oc12 [drawing 173] ; wanted: its IC50
**Result** > 25 µM

**Query** Query Cc1c(OC2CCN(C)CC2)ccc2cc(NC(=O)NC3CCCCC3)c(=O)oc12 [drawing 168] next
**Result** > 25 µM
